Data origin: patent US20180099931A1

- assay_target: F508delCFTR (Homo sapiens, UniProt P13569, DEL508-508)
- Construct: expressed in transfected cells; host or cells: CFBE41o- human lung-derived epithelial cells (CFBE4lo-F508delCFTR-HRP), doxycycline-inducible
- Sequence (P13569 with tags, fused parts or gaps DEL508-508): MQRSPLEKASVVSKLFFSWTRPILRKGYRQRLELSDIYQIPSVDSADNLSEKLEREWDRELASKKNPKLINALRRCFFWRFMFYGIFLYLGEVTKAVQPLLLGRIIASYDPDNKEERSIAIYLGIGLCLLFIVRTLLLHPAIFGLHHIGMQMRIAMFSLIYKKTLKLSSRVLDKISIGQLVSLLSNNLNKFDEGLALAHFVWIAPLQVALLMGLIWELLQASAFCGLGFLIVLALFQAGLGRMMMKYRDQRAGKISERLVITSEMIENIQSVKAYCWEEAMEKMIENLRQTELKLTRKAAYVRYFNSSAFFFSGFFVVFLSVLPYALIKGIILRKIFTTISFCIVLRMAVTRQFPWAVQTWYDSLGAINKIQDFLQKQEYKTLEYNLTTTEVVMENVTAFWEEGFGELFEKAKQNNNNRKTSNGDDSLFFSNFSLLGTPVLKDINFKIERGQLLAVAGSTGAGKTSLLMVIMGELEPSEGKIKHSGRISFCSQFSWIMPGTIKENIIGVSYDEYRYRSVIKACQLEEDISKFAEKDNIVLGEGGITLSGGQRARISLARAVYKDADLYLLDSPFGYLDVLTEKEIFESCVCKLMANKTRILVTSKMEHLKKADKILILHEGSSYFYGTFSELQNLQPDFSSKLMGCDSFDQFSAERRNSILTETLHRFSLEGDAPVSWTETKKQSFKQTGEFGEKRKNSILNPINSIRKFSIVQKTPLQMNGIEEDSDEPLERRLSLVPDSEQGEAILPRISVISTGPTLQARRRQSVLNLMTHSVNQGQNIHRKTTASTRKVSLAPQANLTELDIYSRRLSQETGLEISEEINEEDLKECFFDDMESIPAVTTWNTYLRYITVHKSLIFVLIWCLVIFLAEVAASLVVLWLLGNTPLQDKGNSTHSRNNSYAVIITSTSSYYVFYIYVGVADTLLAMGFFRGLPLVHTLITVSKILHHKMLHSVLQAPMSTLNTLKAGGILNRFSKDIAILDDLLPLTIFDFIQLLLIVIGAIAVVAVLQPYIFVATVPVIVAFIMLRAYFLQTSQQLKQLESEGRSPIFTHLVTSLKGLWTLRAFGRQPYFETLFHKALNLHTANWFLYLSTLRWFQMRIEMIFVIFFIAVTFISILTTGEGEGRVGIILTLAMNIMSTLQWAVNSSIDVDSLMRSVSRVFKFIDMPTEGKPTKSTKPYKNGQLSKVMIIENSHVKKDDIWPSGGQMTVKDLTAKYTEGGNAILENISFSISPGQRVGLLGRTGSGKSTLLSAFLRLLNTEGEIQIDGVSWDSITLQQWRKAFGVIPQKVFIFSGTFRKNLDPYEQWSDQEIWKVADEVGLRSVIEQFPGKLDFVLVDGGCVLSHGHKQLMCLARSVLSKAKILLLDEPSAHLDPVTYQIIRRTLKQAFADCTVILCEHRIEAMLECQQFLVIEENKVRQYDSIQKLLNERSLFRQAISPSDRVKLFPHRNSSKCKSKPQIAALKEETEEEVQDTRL
- assay_protocol: Cell Surface Expression-Horse Radish Peroxidase (CSE-HRP) Assay
- Assay type: cell-based
- measurement_parameters: CSE-HRP; with co-corrector (2 μM of 3-[(2R,4R)-4-({[1-(2,2-difluoro-1,3-benzodioxol-5-yl)cyclopropyl]carbonyl}amino)-7-methoxy-3,4-dihydro-2H-chromen-2-yl]benzoic acid); read-out: EC50 (with co-corrector)
assay_readout: EC50

Worked cases, EC50 given:
{"compound": "COc1ccc(-c2cccc(F)c2F)cc1CN[C@H]1[C@H](C(C)(C)C)[C@@H](C(=O)O)N(C(=O)C2CCCCC2)[C@H]1c1ccccc1 [II-286]", "EC50": "< 1000 nM"}
{"compound": "COc1ccc(Cl)cc1CN[C@H]1[C@H](C(C)(C)C)[C@@H](C(=O)O)N(C(=O)C2CCCO2)[C@H]1c1ccccc1 (mixture of isomers) [II-61]", "EC50": "1000 to 10000 nM"}
{"compound": "COc1ccc(C(C)(C)C)cc1CN[C@H]1[C@H](C(C)(C)C)[C@@H](C(=O)O)N(C(=O)CC2=CCCC2)[C@H]1c1ccccc1 [II-234]", "EC50": "1000 to 10000 nM"}
{"compound": "COc1ccc(Br)cc1CN[C@H]1[C@H](C(C)(C)C)[C@@H](C(=O)O)N(C(=O)C2CCCCC2)[C@H]1c1ccccc1F [II-262]", "EC50": "1000 to 10000 nM"}
{"compound": "COc1ncc(C(F)(F)F)cc1CN[C@H]1[C@H](C(C)(C)C)[C@@H](C(=O)O)N(C(=O)[C@H]2C[C@@H]3CC[C@H]2O3)[C@H]1c1ccccc1C(C)C (relative stereo) [Example I-270]", "EC50": "< 1000 nM"}

Consider now this further compound.
Input: Provide only the value of recorded EC50 for COc1cc(F)ccc1CN[C@H]1[C@H](C(C)(C)C)[C@@H](C(=O)O)N(C(=O)C2CCCCC2)[C@H]1c1ccccc1 [II-118]
Output: 1000 to 10000 nM

---

- assay_target: F508delCFTR (Homo sapiens, UniProt P13569, DEL508-508)
- Construct: expressed in transfected cells; host or cells: CFBE41o- human lung-derived epithelial cells (CFBE4lo-F508delCFTR-HRP), doxycycline-inducible
- assay_protocol: Cell Surface Expression-Horse Radish Peroxidase (CSE-HRP) Assay
- Assay type: cell-based
- measurement_parameters: with co-corrector (2 μM of 3-[(2R,4R)-4-({[1-(2,2-difluoro-1,3-benzodioxol-5-yl)cyclopropyl]carbonyl}amino)-7-methoxy-3,4-dihydro-2H-chromen-2-yl]benzoic acid); read-out: EC50 (with co-corrector)
assay_readout: EC50

Worked cases, EC50 given:
{"smiles": "COc1cc(C(F)(F)F)ccc1CN[C@H]1[C@H](C(C)(C)C)[C@@H](C(=O)O)N(C(=O)C2CCCCC2)[C@H]1c1ccccc1C", "EC50": "< 1000 nM"}
{"smiles": "COc1nc(C(C)(C)C)ccc1CN[C@H]1[C@H](C(C)(C)C)[C@@H](C(=O)O)N(C(=O)C2CCCCC2)[C@H]1c1cccnc1OC", "EC50": "1000 to 10000 nM"}

Input: Provide only the value of recorded EC50 for `CC(C)(C)NC(=O)c1ccc(N[C@H]2[C@H](C(C)(C)C)[C@@H](C(=O)O)N(C(=O)C3CCCCC3)[C@H]2c2ccccc2)nc1`
Output: 1000 to 10000 nM

---

EC50 for assorted compounds
- assay_target: F508delCFTR (Homo sapiens, UniProt P13569, DEL508-508)
- Construct: expressed in transfected cells; host or cells: CFBE41o- human lung-derived epithelial cells (CFBE4lo-F508delCFTR-HRP), doxycycline-inducible
- assay_protocol: Cell Surface Expression-Horse Radish Peroxidase (CSE-HRP) Assay
- Type: cell-based
- measurement_parameters: CSE-HRP; test compound without co-corrector; read-out: EC50 (without co-corrector)

{"compound": "Cc1c(N[C@H]2[C@H](C(C)(C)C)[C@@H](C(=O)O)N(C(=O)C3CCCCC3)[C@H]2c2ccccc2)c(Cl)nc2ccc(F)cc12 [II-144]", "assay_target": "F508delCFTR (Homo sapiens, UniProt P13569, DEL508-508)", "EC50": "1 to 10 µM"}
{"compound": "COc1ccc(C(F)(F)F)cc1CN[C@@H]1[C@@H](C(C)(C)C)[C@H](C(=O)O)N(C(=O)C2CCOC(C)(C)C2)[C@@H]1c1ccccc1N(C)C (mixture of isomers) [II-24]", "assay_target": "F508delCFTR (Homo sapiens, UniProt P13569, DEL508-508)", "EC50": "1 to 10 µM"}
{"compound": "CCOc1cc2c(cc1CN[C@H]1[C@H](C(C)(C)C)[C@@H](C(=O)O)N(C(=O)C3CCCCC3)[C@H]1c1ccccc1)CCC2 [II-129]", "assay_target": "F508delCFTR (Homo sapiens, UniProt P13569, DEL508-508)", "EC50": "1 to 10 µM"}
{"compound": "COc1cc2c(cc1CN[C@H]1[C@H](C(C)(C)C)[C@@H](C(=O)O)N(C(=O)OC(C)C)[C@H]1c1cccnc1N(C)C)C(C)(C)CCC2(C)C [Example I-251]", "assay_target": "F508delCFTR (Homo sapiens, UniProt P13569, DEL508-508)", "EC50": "1 to 10 µM"}
{"compound": "COc1ccc(C(C)(C)C)cc1CN[C@H]1[C@H](C(C)(C)C)[C@@H](C(=O)O)N(C(=O)CC23CC(C2)C3)[C@H]1c1ccccc1 [II-177]", "assay_target": "F508delCFTR (Homo sapiens, UniProt P13569, DEL508-508)", "EC50": "1 to 10 µM"}
{"compound": "COc1ncc(Br)cc1CN[C@H]1[C@H](C(C)(C)C)[C@@H](C(=O)O)N(C(=O)C2CCCCC2)[C@H]1c1ccccc1 [II-158]", "assay_target": "F508delCFTR (Homo sapiens, UniProt P13569, DEL508-508)", "EC50": "< 1 µM"}
{"compound": "COc1ccc(C(C)(C)C)cc1CN[C@H]1[C@H](C(C)(C)C)[C@@H](C(=O)O)N(C(=O)C(OC)C(C)C)[C@H]1c1ccccc1 (stereo partly drawn) [II-267]", "assay_target": "F508delCFTR (Homo sapiens, UniProt P13569, DEL508-508)", "EC50": "1 to 10 µM"}
{"compound": "COc1ncc(C2CCC2)cc1CN[C@H]1[C@H](C(C)(C)C)[C@@H](C(=O)O)N(C(=O)[C@@H]2CCC[C@H](C(F)(F)F)C2)[C@H]1c1ccccc1 (relative stereo) [Example I-259]", "assay_target": "F508delCFTR (Homo sapiens, UniProt P13569, DEL508-508)", "EC50": "1 to 10 µM"}
{"compound": "COc1ccc(C(C)(C)C)cc1CN[C@H]1[C@H](C(C)(C)C)[C@@H](C(=O)O)N(C(=O)[C@@]2(C)COc3cc4c(cc32)OC(F)(F)O4)[C@H]1c1cccnc1OC [Example I-254]", "assay_target": "F508delCFTR (Homo sapiens, UniProt P13569, DEL508-508)", "EC50": "1 to 10 µM"}
{"compound": "COc1ccccc1C1(CN[C@H]2[C@H](C(C)(C)C)[C@@H](C(=O)O)N(C(=O)OC(C)C)[C@H]2c2ccccc2)CCOCC1 [Example I-267]", "assay_target": "F508delCFTR (Homo sapiens, UniProt P13569, DEL508-508)", "EC50": "> 10 µM"}

Input: Provide only the value of recorded EC50 for COc1ccc(C(C)(C)C)cc1CN[C@H]1[C@H](C(C)(C)C)[C@@H](C(=O)O)N(C(=O)C(OC)C(C)(C)C)[C@H]1c1ccccc1 (relative stereo) [II-297]
Output: 1 to 10 µM

Input: Provide only the value of recorded EC50 for COc1ccc(C(F)(F)F)cc1CN[C@H]1[C@H](C(C)(C)C)[C@@H](C(=O)O)N(C(=O)[C@@H](C)OC)[C@H]1c1ccccc1 [II-120]
Output: 1 to 10 µM

---

- assay_target: F508delCFTR (Homo sapiens, UniProt P13569, DEL508-508)
- Construct: expressed in transfected cells; host or cells: CFBE41o- human lung-derived epithelial cells (CFBE4lo-F508delCFTR-HRP), doxycycline-inducible
- assay_protocol: Cell Surface Expression-Horse Radish Peroxidase (CSE-HRP) Assay;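 on Maximum % activity (without co-corrector): percent of the 2 µM on-plate positive control corrector response above DMSO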
- Type: cell-based
- measurement_parameters: without co-corrector; maximum at any tested concentration, normalized to on-plate positive control; read-out: Maximum % activity (without co-corrector)
Emax for assorted molecules

Worked cases, Emax given:
{"molecule": "COc1ncc(C2CCC2)cc1CN[C@H]1[C@H](C(C)(C)C)[C@@H](C(=O)O)N(C(=O)[C@@H]2CCCO2)[C@H]1c1ccccc1Br", "Emax": "100 to 200%"}
{"molecule": "COc1ncc(C(F)(F)F)cc1CN[C@H]1[C@H](C(C)(C)C)[C@@H](C(=O)O)N(C(=O)[C@@H]2CCCCO2)[C@H]1c1cccnc1N(C)C", "Emax": "100 to 200%"}
{"molecule": "COc1ccc(C(C)(C)C)cc1CN[C@H]1[C@H](C(C)(C)C)[C@@H](C(=O)O)N(C(=O)c2c(C)nn(-c3ccccc3F)c2C)[C@H]1c1ccccc1", "Emax": "> 200%"}

Input: Provide only the value of recorded Emax for `COc1ccc(C(C)(C)C)cc1CN[C@H]1[C@H](C(C)(C)C)[C@@H](C(=O)O)N(C(=O)C2CCCCC2)[C@H]1c1cccnc1N(C)C`
Output: > 200%

Input: Provide only the value of recorded Emax for COc1ccc(C(C)(C)C)cc1CN[C@H]1[C@H](C(C)(C)C)[C@@H](C(=O)O)N(C(=O)C(OC)c2ccc(F)c(F)c2)[C@H]1c1ccccc1 (relative stereo)
Output: > 200%
